Test system: Hep 3B2
Test Method Notes: Antiproliferative activity against human Hep3B cells assessed as growth inhibition
Format: functional, cell-based
pIC50: −log10 of the molar value.
Assign 1 whenever pIC50 does not fall below 5; assign 0 whenever it does.

# count of solved cases: 3
* C=CCn1c(SCC(=O)Nc2ccc(C(=O)O)cc2)nnc1-c1ccncc1 | 1
* O=C(CSc1nnc(-c2ccncc2)n1-c1ccccc1)Nc1ccc(C(=O)O)cc1 | 1
* CCn1c(SCC(=O)Nc2ccc(C(=O)O)cc2)nnc1-c1ccncc1 | 0

# evaluate next
Q) Is pIC50 at least 5? Consider `Cn1c(SCC(=O)Nc2ccc(C(=O)O)cc2)nnc1-c1ccncc1`
A) 1

###

# Focal adhesion kinase 1 (Homo sapiens, UniProt Q05397): pIC50 values follow
# Sequence (Q05397 whole entry): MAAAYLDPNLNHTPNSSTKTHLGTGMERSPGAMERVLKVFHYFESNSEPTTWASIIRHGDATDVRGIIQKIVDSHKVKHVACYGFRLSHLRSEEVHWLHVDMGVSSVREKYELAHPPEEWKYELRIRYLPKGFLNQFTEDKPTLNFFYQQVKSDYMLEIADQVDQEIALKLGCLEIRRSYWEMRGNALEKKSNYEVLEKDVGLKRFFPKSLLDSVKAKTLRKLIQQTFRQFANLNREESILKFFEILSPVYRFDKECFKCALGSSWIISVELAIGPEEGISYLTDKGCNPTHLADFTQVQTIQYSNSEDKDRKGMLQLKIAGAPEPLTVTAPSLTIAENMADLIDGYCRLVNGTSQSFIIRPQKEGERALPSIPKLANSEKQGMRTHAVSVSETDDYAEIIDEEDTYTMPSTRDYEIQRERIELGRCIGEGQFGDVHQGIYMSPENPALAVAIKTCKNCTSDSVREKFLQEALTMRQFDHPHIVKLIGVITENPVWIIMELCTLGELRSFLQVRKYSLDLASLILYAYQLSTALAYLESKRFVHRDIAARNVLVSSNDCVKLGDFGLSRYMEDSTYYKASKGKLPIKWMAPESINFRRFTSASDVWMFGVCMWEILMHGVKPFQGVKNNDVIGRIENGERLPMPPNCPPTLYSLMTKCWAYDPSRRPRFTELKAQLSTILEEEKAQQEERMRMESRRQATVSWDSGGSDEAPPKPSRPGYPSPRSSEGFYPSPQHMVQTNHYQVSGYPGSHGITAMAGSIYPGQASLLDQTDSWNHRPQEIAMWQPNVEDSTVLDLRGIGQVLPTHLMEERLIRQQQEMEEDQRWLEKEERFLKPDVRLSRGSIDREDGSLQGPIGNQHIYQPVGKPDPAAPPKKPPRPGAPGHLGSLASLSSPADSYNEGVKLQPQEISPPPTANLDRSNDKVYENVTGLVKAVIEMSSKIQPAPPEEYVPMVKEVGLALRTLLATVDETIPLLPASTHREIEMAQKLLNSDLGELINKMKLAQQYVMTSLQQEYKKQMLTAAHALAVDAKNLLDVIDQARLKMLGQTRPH
On this scale, pIC50 is minus log10 of a concentration expressed in M (mol/L).

* O=C(CSc1nnc(-c2ccncc2)n1-c1ccccc1)Nc1ccc(C(=O)O)cc1 | 7.74

Q) State measured pIC50 of the compound `C=CCn1c(SCC(=O)Nc2ccc(C(=O)O)cc2)nnc1-c1ccncc1` with Focal adhesion kinase 1 (Homo sapiens, UniProt Q05397).
A) 7.44

###

Parameter: pIC50. Scope: all listed entries.
System: HepG2
Test Method Notes: Antiproliferative activity against human HepG2 cells assessed as growth inhibition
Format: functional, cell-based
On this scale, pIC50 is minus log10 of a concentration expressed in M (mol/L).

Check out these entries, answers already filled in.
* CCn1c(SCC(=O)Nc2ccc(C(=O)O)cc2)nnc1-c1ccncc1 | 4.39
* Cn1c(SCC(=O)Nc2ccc(C(=O)O)cc2)nnc1-c1ccncc1 | 5.05
* O=C(CSc1nnc(-c2ccncc2)n1-c1ccccc1)Nc1ccc(C(=O)O)cc1 | 5.42
* COc1cccc2c1C(=O)c1c(O)c3c(c(O)c1C2=O)C[C@@](O)(C(=O)CO)C[C@@H]3O[C@H]1C[C@H](N)[C@H](O)[C@H](C)O1 [DOXORUBICIN] | 5.70

Q) Read off the recorded pIC50 for `C=CCn1c(SCC(=O)Nc2ccc(C(=O)O)cc2)nnc1-c1ccncc1`
A) 5.33
